Each entry below carries its recorded Binding / Kb.10^4 [dm^3.mol^-1].
- Tested on: α1-acid-glycoprotein (AAG); orosomucoid
- Construct: gene ORM1; docking only used 3kq0
- ASSAY REMARKS: intrinsic fluorescence quenching, excitation […] nm
- Format: binding
- CONDITION NOTES: double-log; 297 K, 0.01 M phosphate buffer pH 7.4, 1.0 µM AAG, ligand stock in EtOH, inner filter corrected

Before answering, review these 2 worked examples.
>>> observed_measurement("CCCCn1c(C)c2c(OCc3nn(CN4CCN(c5ccccc5)CC4)c(=S)o3)nn(C)c(=O)c2c1C [compound 1, pyrrolo[3,4-d]pyridazinone derivative 1]")
"3.09 × 10^4 dm^3·mol^−1"
>>> observed_measurement("Cc1c2c(OCc3nn(CN4CCC(O)(c5ccc(Cl)cc5)CC4)c(=S)o3)nn(C)c(=O)c2c(C)n1-c1ccccc1 [compound 5, pyrrolo[3,4-d]pyridazinone derivative 5]")
"1.41 × 10^4 dm^3·mol^−1"

Requested read-out Binding / Kb.10^4 [dm^3.mol^-1], target or system α1-acid-glycoprotein (AAG); orosomucoid, entry CCCCn1c(C)c2c(OCc3nn(CN4CCC(O)(c5ccc(Cl)cc5)CC4)c(=S)o3)nn(C)c(=O)c2c1C [compound 2, pyrrolo[3,4-d]pyridazinone derivative 2]
4.57 × 10^4 dm^3·mol^−1

Entry to check: Cc1c2c(OCc3nn(CN4CCN(c5ccc([N+](=O)[O-])cc5)CC4)c(=S)o3)nn(C)c(=O)c2c(C)n1-c1ccccc1 [compound 4, pyrrolo[3,4-d]pyridazinone derivative 4]
5.01 × 10^4 dm^3·mol^−1

Entry to check: Cc1c2c(OCc3nn(CN4CCN(c5ccccc5)CC4)c(=S)o3)nn(C)c(=O)c2c(C)n1-c1ccccc1 [compound 3, pyrrolo[3,4-d]pyridazinone derivative 3]
4.57 × 10^4 dm^3·mol^−1
